Target: Calcium and integrin-binding protein 1 (Homo sapiens)
Experiment: Primary qHTS for Identification of Calcium Integrin Binding Protein 1 (CIB1) Competitor (AID 1508620);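 also: GST tagged CIB1 binding a fluorescein labelled alphaIIb integrin peptide tracer; top concentration of the series differs between compounds; % is scaled to controls: 0 for no effect and ±100 for the full control effect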
Details: CIB1-GST / FITC-alphaIIb peptide fluorescence polarization; series mostly up to 57.7 µM
Results filed as inconclusive are left out. Active and inactive are the calls of the source. Calls follow the shape of the dose curve; as a rule, active = well fitted inhibition curve with a large enough effect; inconclusive = small, poorly fitted or top-dose-only effect; inactive = flat fitted curve, though single readings scatter.

molecule	assayedTarget	activity change, negative = inhibition
CC(C)=CCC[C@](C)(O[C@@H]1O[C@H](CO[C@@H]2O[C@@H](CO)[C@H](O)[C@H]2O[C@@H]2OC[C@@H](O)[C@H](O)[C@H]2O)[C@@H](O)[C@H](O)[C@H]1O)[C@H]1CC[C@]2(C)[C@@H]1[C@H](O)CC1[C@@]3(C)CC[C@H](O[C@@H]4O[C@H](CO)[C@@H](O)[C@H](O)[C@H]4O[C@@H]4O[C@H](CO)[C@@H](O)[C@H](O)[C@H]4O)C(C)(C)C3CC[C@]12C (stereo partly specified)	Calcium and integrin-binding protein 1 (Homo sapiens)	-3.93% [at 12.4 µM] (inactive)
CC1=C2C(=O)C=C(CO)C2[C@H]2OC(=O)[C@H](C)[C@@H]2[C@@H](OC(=O)Cc2ccc(O)cc2)C1 (stereo partly specified)	Calcium and integrin-binding protein 1 (Homo sapiens)	inactive
CC(=O)NC(C(=O)OC1CCC(C)(C)C2CC=C3C(=O)OCC3C12C)C(C)C (stereo unspecified)	Calcium and integrin-binding protein 1 (Homo sapiens)	inactive
CC1(C(=O)O)CC[C@]2(C(=O)OC3OC(CO)C(O)C(O)C3O)CC[C@]3(C)C(=CCC4[C@@]5(C)CC[C@H](OC6OCC(O)C(O)C6OC6OC(CO)C(O)C(O)C6O)C(C)(C)C5CC[C@]43C)C2C1 (stereo partly specified)	Calcium and integrin-binding protein 1 (Homo sapiens)	inactive
C=CC(C)(O)CC/C=C(\C)COC1O[C@H](CO)[C@@H](O)[C@H](O)[C@H]1O (stereo partly specified)	Calcium and integrin-binding protein 1 (Homo sapiens)	inactive
CC1(C)CC[C@]2(C(=O)O)[C@H](O)C[C@]3(C)C(=CCC4[C@@]5(C)CC[C@H](O[C@@H]6OC[C@@H](O)[C@H](O)[C@H]6O)[C@@](C)(C(=O)O)C5CC[C@]43C)[C@@H]2C1 (stereo partly specified)	Calcium and integrin-binding protein 1 (Homo sapiens)	inactive
CCC1(O)CC2c3cc(OC)c(OC)cc3CCN2CC1CC(C)C (stereo unspecified)	Calcium and integrin-binding protein 1 (Homo sapiens)	inactive
O=C(OCC1=C[C@@H](O)[C@@H]2C=CO[C@@H](O[C@@H]3O[C@H](CO)[C@@H](O)[C@H](O)[C@H]3O)[C@H]12)c1ccc(O)cc1	Calcium and integrin-binding protein 1 (Homo sapiens)	inactive
CC(=O)OCC1OC(OC2COC(OC3COC(OC4C(OC5C(CO)OC(OC6CCC7(C)C(CCC8(C)C7CC=C7C9CC(C)(C)CCC9(C(=O)OC9OC(CO)C(O)C(O)C9OC9OCC(OC%10OCC(O)(CO)C%10O)C(O)C9O)C(O)CC78C)C6(C)C)C(O)C5O)OCC(O)C4O)C(O)C3O)C(O)C2O)C(OC(=O)/C=C/c2ccccc2)C(O)C1OC(C)=O (stereo unspecified)	Calcium and integrin-binding protein 1 (Homo sapiens)	-1.97% [at 12.4 µM] (inactive)
CC1(C)CC[C@]2(C(=O)O)CC[C@]3(C)C(=CCC4[C@@]5(C)C[C@H](O)[C@H](O[C@@H]6O[C@H](CO)[C@@H](O)[C@H](O)[C@H]6O)[C@@](C)(CO)C5[C@H](O)C[C@]43C)[C@@H]2C1 (stereo partly specified)	Calcium and integrin-binding protein 1 (Homo sapiens)	inactive
COc1ccc2c(c1)N1C(=O)C[C@@]34C=CC[N@+]5([O-])CC[C@H]2[C@H](CC3)[C@@]145	Calcium and integrin-binding protein 1 (Homo sapiens)	inactive

The reported measurements were obtained from PubChem BioAssay (NCATS).
